# assayProcedure: Cytotoxicity against […] HepG2 cells by MTT assay
# Format: cell-based
# experimentalContext: read-out: LD50 (the source's name)
property: CC50

Return reported CC50; argument: `C[N+]1(CCOCCOCCN)CCCC1`
> 80 µM

Return reported CC50; argument: `CCCCCCCCCCCCCCCCCC(=O)NCCOCCOCCN.Cl`
> 80 µM

----------
# assayProcedure: Cytotoxicity against human MCF7 by MTT assay
# Format: cell-based
# experimentalContext: MCF7 cells, read-out: LD50 (the source's name)
property: CC50

Return reported CC50; argument: `CCCCCCCCCCCCCCCCCC(=O)NCCOCCOCCN.Cl`
> 80 µM

Return reported CC50; argument: `C[N+]1(CCOCCOCCN)CCCC1`
> 80 µM
